From: patent US20220251081A1

test system: SAM in HCT116 human colon carcinoma cell line with deleted MTAP gene; assay: Cellular assay of target engagement (SAM): SAM level by LC-MS/MS after 72 hrs; assay type: cell-based; details: HCT-116, IC50 score, read-out: Cell 72 h SAM Inhibition (MTAP −/−)
measured parameter: IC50

// known answers, use as guide
> print(dat)
                      smiles.representation  measured.parameter  value.measured
1  Cn1cc2cc(-c3cc4ccc(OCC(F)F)nc4n(-c4ccc(Cl)cc4)c3=O)ccc2n1                IC50        < 100 nM
2  CCCc1ccc2cc(-c3ccc4nn(C)cc4c3)c(=O)n(-c3ccc(Cl)cc3)c2n1                IC50        < 100 nM
3  [2H]C([2H])([2H])Oc1ccc(-n2c(=O)c(-c3ccc4nn(C)cc4c3)cc3ccc(OC([2H])([2H])C([2H])([2H])[2H])nc32)cc1                IC50        < 100 nM

Now, please, on to the next compound.
The observed IC50 for `CCOc1ccc2cc(-c3ccc(OC)cc3)c(=O)n(-c3ccc(OC(F)F)nc3)c2n1` when tested with SAM in HCT116 human colon carcinoma cell line with deleted MTAP gene stands at 100 to 1000 nM

---

molecular target: MAT2A homodimer (Homo sapiens, UniProt P31153); construct: inferred from Ni sepharose purification and imidazole elution; assay: Biochemical assay: inhibition of recombinant MAT2A homodimer (phosphate release, PiColorLock Gold); conditions: MAT2A IC50 score; read-out: Enzyme Inhibition
Sequence (P31153 whole entry): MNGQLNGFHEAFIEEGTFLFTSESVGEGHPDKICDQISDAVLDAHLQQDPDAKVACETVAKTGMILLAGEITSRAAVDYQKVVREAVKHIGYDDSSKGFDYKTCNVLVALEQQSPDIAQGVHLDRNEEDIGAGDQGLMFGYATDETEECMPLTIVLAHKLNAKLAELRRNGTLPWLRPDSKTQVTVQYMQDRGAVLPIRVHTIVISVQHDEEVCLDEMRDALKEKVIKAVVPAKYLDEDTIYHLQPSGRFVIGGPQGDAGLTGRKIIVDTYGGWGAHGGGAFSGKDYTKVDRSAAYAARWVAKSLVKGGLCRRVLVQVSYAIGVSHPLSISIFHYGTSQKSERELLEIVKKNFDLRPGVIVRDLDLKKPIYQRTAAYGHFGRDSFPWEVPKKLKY
pIC50: −log10 of the molar value.
Below: a set of entries, each annotated with reported pIC50.

Noted for `CCOc1ccc2cc(-c3ccc4nncn4c3)c(=O)n(-c3ccc(C4CC4)nc3)c2n1` : its pIC50 reads > 7.00

---

test system: SAM in HCT116 human colon carcinoma cell line with deleted MTAP gene; test: Cellular assay of target engagement (SAM): SAM level by LC-MS/MS after 72 hrs; format: cell-based; details: HCT-116, IC50 score, read-out: Cell 72 h SAM Inhibition (MTAP −/−)
pIC50: −log10 of the molar value.
measured parameter: pIC50

// known answers, use as guide
> print(dat)
                                   compound  value.measured
1  CCOc1ccc2cc(-c3ccc4nn(C)cc4c3)c(=O)n(-c3ccc(OC)cc3)c2n1 [Example 142]          > 7.00
2  COc1ccc(-c2cc3cnc(NCC(F)(F)F)nc3n(-c3ccc(Br)cc3)c2=O)cc1 [Example 232]          > 7.00
3  Cn1cc2cc(-c3cc4ccc(OCC(F)F)nc4n(-c4ccc(Br)cc4)c3=O)ccc2n1 [Example 318]          > 7.00

Now, please, on to the next compound.
Noted for COc1ccc(-n2c(=O)c(-c3ccc4ncccc4c3)cc3cnc(NCC(F)(F)F)nc32)cc1 [Example 116] : its pIC50 reads > 7.00

---

Below: a set of entries, each annotated with reported pIC50.
target: MAT2A homodimer (Homo sapiens, UniProt P31153); construct: inferred from Ni sepharose purification and imidazole elution; assay: Biochemical assay: inhibition of recombinant MAT2A homodimer (phosphate release, PiColorLock Gold); settings: MAT2A IC50 score; read-out: Enzyme Inhibition
pIC50: −log10 of the molar value.

> print(dat)
                      smiles.representation  measured.parameter  value.measured
1  [2H]C([2H])([2H])Oc1ccc(-n2c(=O)c(-c3ccc4nn(C)cc4c3)cc3ncc(OCC(F)(F)F)nc32)cc1               pIC50          > 7.00
2  COc1ccc(-c2cc3cnc(NCC(F)(F)F)nc3n(-c3ccc(C#N)cc3)c2=O)cc1               pIC50    6.00 to 7.00
3  CCOc1ccc2cc(-c3ccc4nncn4c3)c(=O)n(-c3ccc(Cl)cc3)c2n1               pIC50          > 7.00
4  Cn1cc2cc(-c3nc4ccc(OCC(F)(F)F)nc4n(-c4ccc(Br)cc4)c3=O)ccc2n1               pIC50          > 7.00
5  COc1ccc(-n2c(=O)c(-c3ccc4nn(C)cc4c3)nc3ccc(OCC(F)(F)F)nc32)cc1               pIC50          > 7.00

Noted for `COc1ccc(-c2cc3cnc(NCC4CC4)nc3n(-c3ccccc3)c2=O)cc1` : its pIC50 reads 6.00 to 7.00

Noted for `CCOc1cc(C)c2cc(-c3ccc4nn(C)cc4c3)c(=O)n(-c3ccc(Cl)cc3)c2n1` : its pIC50 reads > 7.00

Noted for `COc1ccc(-c2cc3cnc(NCC(F)(F)F)nc3n(-c3ccc(CCO)cc3)c2=O)cc1` : its pIC50 reads > 7.00
